Where do these numbers come from? They come from patent US20260028354A1.

So I've got a bunch of compounds here, and I need their Dmax values.
# Study Target: ER in MCF-7 cells (Homo sapiens (Human), UniProt P03372)
# Assay Method Text: In-cell Western (ICW) ER degradation assay in MCF-7 cells
# Type: cell-based
# Study Conditions: MCF7, MCF-7, maximal ER degradation, 16 hrs treatment; read-out: MCF7 Dmax

### Prompt Dmax for COc1cc(N2CCC3(CC2)CC(CN2CCN4c5cc6c(cc5OC[C@@H]4C2)C(=O)N([C@H]2CCC(=O)NC2=O)C6)C3)c(F)cc1[C@@H]1c2ccc(O)cc2CC[C@@H]1c1ccccc1 ?
### Response > 75%

For every item below, please supply its Dmax.
1. O=C1CCC(NC(=O)c2ccc3c(n2)OC[C@H]2CN(CC4CCN(c5ccc([C@@H]6c7ccc(O)cc7CC[C@@H]6c6ccccc6)cc5)CC4)CCN32)C(=O)N1 (stereo partly drawn)
2. COc1cc(N2CCC3(CC2)CC(CN2CCC(c4ccc(N[C@H]5CCC(=O)NC5=O)c(F)c4)CC2)C3)ccc1[C@@H]1c2ccc(O)cc2CC[C@@H]1c1ccccc1 (single isomer, unassigned)
3. COc1cc(N2CCC3(CC2)C[C@@H](CN2CCN4c5cc6c(cc5OC[C@@H]4C2)C(=O)N([C@H]2CCC(=O)NC2=O)C6)CO3)ccc1[C@@H]1c2ccc(O)cc2CC[C@@H]1c1ccccc1 (single isomer, unassigned)
4. COc1cc(N2CC3(CCC(CN4CCN5c6ccc7c(c6OC[C@H]5C4)CN([C@H]4CCC(=O)NC4=O)C7=O)CC3)C2)c(F)cc1[C@H]1c2ccc(O)cc2CC[C@H]1c1ccccc1 (single isomer, unassigned)
5. COc1cc(N2CCC(CCN3CCN4c5ccc6c(c5OC[C@H]4C3)CN([C@H]3CCC(=O)NC3=O)C6=O)CC2)c(F)cc1[C@@H]1c2ccc(O)cc2CC[C@@H]1c1ccccc1
6. O=C1CC[C@H](N2Cc3cc4c(cc3C2=O)OC[C@@H]2CN(C[C@@H]3COC5(C3)CN(c3ccc([C@@H]6c7ccc(O)cc7CC[C@@H]6c6ccccc6)cc3)C5)CCN42)C(=O)N1
7. O=C1CC[C@H](N2Cc3cc4c(cc3C2=O)OC[C@H]2CN(C[C@@H]3COC5(CCN(c6ccc([C@H]7c8ccc(O)cc8CC[C@H]7c7ccccc7)cc6)CC5)C3)CCN42)C(=O)N1

### Response
["> 75%", "25 to 50%", "> 75%", "50 to 75%", "> 75%", "> 75%", "50 to 75%"]

* * *

# Study Target: ER in T47D cells (Homo sapiens (Human), UniProt P03372)
# Sequence (P03372 whole entry): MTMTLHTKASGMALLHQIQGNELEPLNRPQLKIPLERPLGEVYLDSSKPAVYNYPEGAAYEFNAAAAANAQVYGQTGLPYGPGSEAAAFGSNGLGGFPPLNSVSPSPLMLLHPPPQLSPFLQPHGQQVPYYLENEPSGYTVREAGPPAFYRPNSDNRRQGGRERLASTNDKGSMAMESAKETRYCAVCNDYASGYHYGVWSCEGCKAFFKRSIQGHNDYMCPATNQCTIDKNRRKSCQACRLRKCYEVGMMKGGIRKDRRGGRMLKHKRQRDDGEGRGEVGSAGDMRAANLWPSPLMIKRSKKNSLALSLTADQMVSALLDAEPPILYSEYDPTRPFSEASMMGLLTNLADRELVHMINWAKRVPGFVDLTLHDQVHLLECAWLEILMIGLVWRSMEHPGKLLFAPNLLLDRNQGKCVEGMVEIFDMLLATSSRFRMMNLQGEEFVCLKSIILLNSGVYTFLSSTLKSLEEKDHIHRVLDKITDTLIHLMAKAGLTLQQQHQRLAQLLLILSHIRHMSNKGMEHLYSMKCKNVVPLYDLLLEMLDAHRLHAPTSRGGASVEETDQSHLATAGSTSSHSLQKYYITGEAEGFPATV
# Assay Method Text: In-cell Western (ICW) ER degradation assay in T47D cells
# Format: cell-based
# Study Conditions: maximal ER degradation, 16 hrs treatment, read-out: T47D Dmax
Measured Quantity: Dmax

Worked cases, Dmax given:
### Prompt Field request: Dmax | item: O=C1CC[C@H](N2Cc3c(ccc4c3OC[C@H]3CN(CC5CC6(CCN(c7ccc([C@H]8c9ccc(O)cc9CC[C@H]8c8ccccc8)cn7)CC6)C5)CCN43)C2=O)C(=O)N1 (single isomer, unassigned)
### Response 25 to 50%

### Prompt Quick one: O=C1CC[C@H](NC(=O)c2ccc3c(n2)OC[C@H]2CN(C[C@H]4COC5(CCN(c6ccc([C@@H]7c8ccc(O)cc8CC[C@@H]7c7ccccc7)cc6)CC5)C4)CCN32)C(=O)N1 (single isomer, unassigned)
### Response 50 to 75%

### Prompt Please give the result for COc1cc(N2CCC3(CC2)CC(CN2CCC(c4ccc(N[C@H]5CCC(=O)NC5=O)cc4)CC2)C3)ccc1[C@@H]1c2ccc(O)cc2CC[C@@H]1c1ccccc1 (single isomer, unassigned) too.
### Response 50 to 75%

### Prompt # repeat for O=C1CC[C@H](N2Cc3c(ccc4c3OC[C@H]3CN(CC5COC6(C5)CN(c5ccc([C@H]7c8ccc(O)cc8CC[C@H]7c7ccccc7)cc5)C6)CCN43)C2=O)C(=O)N1 (single isomer, unassigned)
### Response > 75%

Required: Dmax, one value per compound below.
1. COc1cc(N2CCC3(CC2)CC(CN2CCN4c5ccc6c(c5OC[C@H]4C2)CN([C@H]2CCC(=O)NC2=O)C6=O)C3)c(F)cc1[C@@H]1c2ccc(O)cc2CC[C@@H]1c1ccccc1
2. COc1cc(N2CCC3(CC2)CC(CN2CCN4c5ccc(C(=O)N[C@H]6CCC(=O)NC6=O)nc5OC[C@@H]4C2)C3)c(F)cc1[C@@H]1c2ccc(O)cc2CC[C@@H]1c1ccccc1
3. O=C1CC[C@H](N2Cc3c(ccc4c3OC[C@H]3CN(CC5CCC6(CC5)CN(c5ncc([C@H]7c8ccc(O)cc8CC[C@H]7c7ccccc7)cn5)C6)CCN43)C2=O)C(=O)N1 (single isomer, unassigned)

### Response
1: > 75%; 2: > 75%; 3: < 25%

Quick request: Dmax for each listed item, please.
1. COc1cc(C(=O)NC2CCC(=O)NC2=O)ncc1N1CCN(CC2CCN(c3ccc([C@@H]4c5ccc(O)cc5CC[C@@H]4c4ccccc4)cc3)CC2)CC1 (stereo partly drawn)
2. O=C1CC[C@H](N2Cc3cc4c(cc3C2=O)OC[C@H]2CN(C[C@@H]3COC5(CCN(c6ccc([C@@H]7c8ccc(O)cc8CC[C@@H]7c7ccccc7)cc6)CC5)C3)CCN42)C(=O)N1 (single isomer, unassigned)

### Response
25 to 50%
50 to 75%
